Biological target: PARP1 (Homo sapiens)
Construct: made in house
Sequence (P09874 whole entry): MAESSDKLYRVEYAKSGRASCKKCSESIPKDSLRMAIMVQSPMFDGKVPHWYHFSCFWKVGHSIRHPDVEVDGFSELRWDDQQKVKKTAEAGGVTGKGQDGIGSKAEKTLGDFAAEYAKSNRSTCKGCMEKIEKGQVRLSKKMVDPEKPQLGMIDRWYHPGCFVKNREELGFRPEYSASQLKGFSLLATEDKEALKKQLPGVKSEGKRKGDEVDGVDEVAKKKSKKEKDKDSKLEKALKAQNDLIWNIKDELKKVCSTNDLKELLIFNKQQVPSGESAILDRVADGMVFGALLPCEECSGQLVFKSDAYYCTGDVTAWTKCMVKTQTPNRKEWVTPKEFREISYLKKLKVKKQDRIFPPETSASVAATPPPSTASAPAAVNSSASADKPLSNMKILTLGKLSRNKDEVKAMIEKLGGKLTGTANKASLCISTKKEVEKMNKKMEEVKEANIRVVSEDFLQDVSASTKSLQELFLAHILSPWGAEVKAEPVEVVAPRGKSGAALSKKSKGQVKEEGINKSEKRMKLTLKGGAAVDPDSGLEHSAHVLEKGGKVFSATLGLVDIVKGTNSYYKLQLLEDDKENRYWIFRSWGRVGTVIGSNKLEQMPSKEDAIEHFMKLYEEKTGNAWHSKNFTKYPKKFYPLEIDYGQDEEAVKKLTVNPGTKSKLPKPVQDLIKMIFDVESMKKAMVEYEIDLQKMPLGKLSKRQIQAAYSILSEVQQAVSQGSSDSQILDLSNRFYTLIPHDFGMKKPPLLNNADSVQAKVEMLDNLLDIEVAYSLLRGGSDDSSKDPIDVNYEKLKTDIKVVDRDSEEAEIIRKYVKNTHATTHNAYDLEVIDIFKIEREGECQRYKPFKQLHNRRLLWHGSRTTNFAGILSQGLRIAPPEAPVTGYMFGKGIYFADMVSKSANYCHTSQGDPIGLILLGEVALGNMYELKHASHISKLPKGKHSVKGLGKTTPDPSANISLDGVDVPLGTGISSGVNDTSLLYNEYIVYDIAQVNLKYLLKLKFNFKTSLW
Assay: Biochemical fluorescent polarization (FP) assay, displacement of PARPi-FL, PARP1
Assay type: binding
Conditions: 20 nM protein, 3 nM PARPi-FL, 4 h at room temperature; read-out: FP PARP1 pIC50 (converted)
ASSAY READOUT: IC50 (µM)
// note: answer is a bare numeric in µM

The examples below pair each entry with its known result.
{"COMPOUND": "CCc1cc2ncc(CN3CCN(c4ccc(Cl)cn4)CC3)cc2[nH]c1=O", "VALUE REPORTED": 0.0158}
{"COMPOUND": "CCc1cc2ncc(CN3CCN(c4cc(F)c(C#N)cc4F)CC3)cc2[nH]c1=O", "VALUE REPORTED": 0.0126}
{"COMPOUND": "Cc1cc2ncc(CN3CCN(c4ccc(C#N)cc4)CC3)cc2[nH]c1=O", "VALUE REPORTED": 0.00501}

[Q] // Input: C[C@@H]1CN(Cc2cnc3cc(C4CC4)c(=O)[nH]c3c2)CCN1c1ccc(C#N)cn1 . Output its IC50 only.
[A] 0.00631

[Q] // Input: Cc1cc2ncc(CN3CCN(c4ccc(C#N)cn4)[C@H](C)C3)cc2[nH]c1=O . Output its IC50 only.
[A] 0.01

[Q] // Input: Cc1cc2ncc(CN3CCN(c4ccc(F)cc4C#N)CC3)cc2[nH]c1=O . Output its IC50 only.
[A] 0.01

[Q] // Input: N#Cc1ccc(N2CCN(Cc3cnc4cc(C5CCCO5)c(=O)[nH]c4c3)CC2)nc1 (single isomer, unassigned) [Example 68] . Output its IC50 only.
[A] 0.0126

[Q] // Input: [2H]C([2H])(c1cnc2cc(CC)c(=O)[nH]c2c1)N1CCN(c2ccc(F)cc2C#N)CC1 . Output its IC50 only.
[A] 0.0158

[Q] // Input: CCc1cc2ncc(CN3CCN(c4ccc(C#N)cc4)CC3)cc2[nH]c1=O . Output its IC50 only.
[A] 0.00631

* * *

Parameter IC50: see the listing below.
Molecular target: PARP2 (Homo sapiens)
Construct: made in house
Assay: Biochemical fluorescent polarization (FP) assay, displacement of PARPi-FL, PARP2
Type: binding
Details: 20 nM protein, 3 nM PARPi-FL, 4 h at room temperature; read-out: FP PARP2 pIC50 (converted)
// note: answer is a bare numeric in µM

{"COMPOUND": "N#Cc1ccc(N2CCN(Cc3cnc4cc(C5CCCO5)c(=O)[nH]c4c3)CC2)nc1 (single isomer, unassigned) [Example 68]", "READING UNIT": "µM", "IC50": 79.4}

From here, focus on the item given below.
[Q] // Input: [2H]C([2H])(c1cnc2cc(CC)c(=O)[nH]c2c1)N1CCN(c2ccc(F)cc2C#N)CC1 . Output its IC50 only.
[A] 25.1

* * *

Parameter IC50: see the listing below.
Molecular target: PARP2 (Homo sapiens, UniProt Q9UGN5)
Construct: made in house
Sequence (Q9UGN5 whole entry): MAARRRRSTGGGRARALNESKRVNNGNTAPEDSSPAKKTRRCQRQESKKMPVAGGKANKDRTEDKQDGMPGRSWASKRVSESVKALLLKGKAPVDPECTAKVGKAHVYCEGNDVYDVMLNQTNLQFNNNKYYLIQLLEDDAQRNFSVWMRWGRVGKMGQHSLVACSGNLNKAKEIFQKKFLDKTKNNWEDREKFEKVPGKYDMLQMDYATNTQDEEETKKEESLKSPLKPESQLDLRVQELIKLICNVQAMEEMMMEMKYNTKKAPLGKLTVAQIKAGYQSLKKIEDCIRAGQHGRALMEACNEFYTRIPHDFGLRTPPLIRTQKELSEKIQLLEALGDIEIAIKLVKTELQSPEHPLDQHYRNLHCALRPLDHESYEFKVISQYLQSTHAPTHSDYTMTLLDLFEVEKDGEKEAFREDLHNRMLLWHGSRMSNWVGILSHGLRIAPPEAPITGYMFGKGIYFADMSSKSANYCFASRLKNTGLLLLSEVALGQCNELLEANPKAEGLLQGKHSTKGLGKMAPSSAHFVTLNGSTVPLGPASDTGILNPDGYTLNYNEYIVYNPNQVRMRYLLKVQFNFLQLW
Assay: Biochemical fluorescent polarization (FP) assay, displacement of PARPi-FL, PARP2
Type: binding
Conditions: 20 nM protein, 3 nM PARPi-FL, 4 h at room temperature; read-out: FP PARP2 pIC50 (converted)

The examples below pair each entry with its known result.
{"COMPOUND": "N#Cc1ccc(N2CCN(Cc3cnc4cc(Cl)c(=O)[nH]c4c3)CC2)c(F)n1 [Example 61]", "IC50": "> 100 µM"}
{"COMPOUND": "[2H]C([2H])(c1cnc2cc(C)c(=O)[nH]c2c1)N1CCN(c2ccc(C#N)cn2)CC1 [Example 37]", "IC50": "> 100 µM"}

From here, focus on the item given below.
[Q] // Input: Cc1cc2ncc(CN3CCN(c4ccc(C#N)nc4C(F)F)CC3)cc2[nH]c1=O [Example 31] . Output its IC50 only.
[A] > 100 µM

* * *

Tested on: DLD-1 BRCA2(−/−) cells
Assay: Cell growth inhibition assay (CellTiter-Glo), DLD-1 BRCA2(−/−)
Assay type: cell-based
Conditions: Homo sapiens, DLD-1, 168 h; 200 cells/well, 7 days, CellTiter Glo 2.0; read-out: DLD-1 BRCA2(−/−) pEC50 (converted)
Label fulfilled when EC50 < 10 nM; otherwise not fulfilled.

{"COMPOUND": "CCc1cc2ncc(CN3CCN(c4ccc(C#N)nc4)[C@H]4C[C@H]43)cc2[nH]c1=O (single isomer, unassigned) [Example 14]", "TEST SYSTEM": "DLD-1 BRCA2(−/−) cells", "CATEGORY LABEL": "not fulfilled"}
{"COMPOUND": "Cc1c(C(F)F)c(=O)[nH]c2cc(CN3CCN(c4ccc(C#N)cn4)CC3)cnc12 [Example 42]", "TEST SYSTEM": "DLD-1 BRCA2(−/−) cells", "CATEGORY LABEL": "fulfilled"}
{"COMPOUND": "Cc1cc2ncc(CN3CCN(c4ccc(C#N)nc4C4CC4)CC3)cc2[nH]c1=O [Example 27]", "TEST SYSTEM": "DLD-1 BRCA2(−/−) cells", "CATEGORY LABEL": "not fulfilled"}

[Q] Determine if CCc1cc2ncc(CN3CCN(c4ccc(C#N)cc4C#N)CC3)cc2[nH]c1=O [Example 52] shows EC50 strictly lower than 10 nM.
[A] fulfilled

[Q] Determine if Cc1nc2ccc(CN3CCN(c4ccc(C#N)nc4F)CC3)c(F)c2[nH]c1=O [Example 74] shows EC50 strictly lower than 10 nM.
[A] not fulfilled

[Q] Determine if Cc1cc2ncc(CN3CCN(c4ccc(C#N)nc4C(F)F)CC3)cc2[nH]c1=O [Example 31] shows EC50 strictly lower than 10 nM.
[A] not fulfilled

[Q] Determine if Cc1cc2ncc(CN3CCN(c4ncc(C#N)cc4F)CC3)cc2[nH]c1=O [Example 30] shows EC50 strictly lower than 10 nM.
[A] not fulfilled

[Q] Determine if Cc1cc2ncc(CN3CCN(c4ccc(C#N)cn4)[C@H]4C[C@H]43)cc2[nH]c1=O (single isomer, unassigned) [Example 19] shows EC50 strictly lower than 10 nM.
[A] not fulfilled

[Q] Determine if Cc1cc2ncc([C@H](C)N3CCN(c4ccc(C#N)cn4)CC3)cc2[nH]c1=O (single isomer, unassigned) [Example 32] shows EC50 strictly lower than 10 nM.
[A] not fulfilled

[Q] Determine if CCc1cc2ncc(CN3CCN(c4ccc(C#N)cc4)CC3)cc2[nH]c1=O [Example 9] shows EC50 strictly lower than 10 nM.
[A] fulfilled

* * *

Parameter IC50: see the listing below.
Target: PARP2 (Homo sapiens, UniProt Q9UGN5)
Construct: made in house
Experiment: Biochemical fluorescent polarization (FP) assay, displacement of PARPi-FL, PARP2
Type: binding
Details: 20 nM protein, 3 nM PARPi-FL, 4 h at room temperature; read-out: FP PARP2 pIC50 (converted)
Experimental: Compounds were characterized using an assay measuring the displacement of a commercially available fluorescently labeled PARP 1/2 inhibitor (PARPi-FL, Tocris Biosciences, #6461) as exemplified in assays performed in WO2014/064149 and WO2021/013735A1. The assay was performed utilizing the following method: Compounds were dissolved in DMSO an Echo550 liquid handler was utilized to make serial dilations in the desired concentration range in Optiplate-384F plates. […]

The examples below pair each entry with its known result.
{"SMILES ENTRY": "N#Cc1ccc(N2CCN(Cc3cnc4cc(Cl)c(=O)[nH]c4c3)CC2)cc1", "VALUE REPORTED": "> 100 µM"}
{"SMILES ENTRY": "CCc1cc2ncc(CN3CCC(c4ccc(C#N)cn4)CC3)cc2[nH]c1=O", "VALUE REPORTED": "> 100 µM"}

[Q] // Input: CCc1cc2ncc(CN3CCN(c4ccc(Cl)cn4)CC3)cc2[nH]c1=O . Output its IC50 only.
[A] > 100 µM
